Measured peptide exchange yield values are reported for all entries that follow.
biological target: T1, HLA-A*01:01 (human); assay: UV-ligand exchange, anti-b2m ELISA
T1 construct: MHC class I monomer first loaded with a UV-sensitive peptide (not identified) that is cleaved by UV irradiation and exchanged for the tested peptide; captured on streptavidin plates, detected with anti-β2m; also called peptide-receptive MHC molecules

Use the examples below as a reference point.
Binder: NSALNPLLY
peptide exchange yield: > 75%

Binder: SSTDFTFASW
peptide exchange yield: 10 to 20%

Binder: ARDPITFSF
peptide exchange yield: 20 to 50%

Binder: KPTEDSANVY
peptide exchange yield: 50 to 75%

Binder: YEDHFPLLF
peptide exchange yield: 20 to 50%

// fetch peptide exchange yield given entry `YFGNYFTYY`
10 to 20%

// fetch peptide exchange yield given entry `ETEPERHLGSY`
50 to 75%

Note down peptide exchange yield recorded for `YLYQAPGSLALY`
> 75%
